Tested on: MDA-MB-435 melanoma
Assay: NCI-60 one-dose screen, 48 h
Details: 10 µM unless noted
Compounds without any hit were thinned out: in the full panel of roughly 83,000, 20% have a hit. The source made the active and inactive calls. How the source made its calls: active means growth percent below 10; inactive means the rest.
Select the correct class. Options are class 1 (active), class 0 (inactive) and nothing else.

CC(C)c1cc(CNc2nc(Nc3cc(C4CC4)[nH]n3)cc(N3CCN(C)CC3)n2)on1; class 1
Cc1csc(-c2nnc(Nc3ccc(Oc4ncccc4-c4ccnc(N)n4)cc3)c3ccccc23)c1; class 0
O=C1C=CC2(NN=C(c3ccccc3)N2c2ccc(Cl)cc2)c2cccc(O)c21 (stereo not drawn); class 1
Cc1ccccc1N1C(c2ccccc2)=NNC12C=CC(=O)C=C2Cl (stereo not drawn); class 0
CC1(C)NC(=O)c2[nH]c3c(Cl)c(Cl)ccc3c2C1C#N (stereo not drawn); class 0
O=C1C=CC2(NN=C(c3ccccc3)N2c2cccc(Cl)c2)C(Cl)=C1 (stereo not drawn); class 0

Which result was noted for this compound in the test: `Cc1cccc(Cl)c1NC(=O)c1cnc(Nc2cc(N3CCOCC3)cc(N3CCOCC3)c2)s1` class 0

Any idea what this test logged for COC(=O)[C@H](C)NC(=O)[C@@H](OC)[C@@H]1Cc2cc3cc(OC4CC(OC5CC(O)C(O)C(C)O5)C(O)C(C)O4)c(C)c(O)c3c(O)c2C(=O)[C@H]1OC1CC(OC2CC(OC3CC(C)(O)C(O)C(C)O3)C(O)C(C)O2)C(O)C(C)O1 (stereo partly drawn) ? class 1

====

Tested on: EKVX NSCLC
Assay: NCI-60 one-dose screen, 48 h
Conditions: 10 µM unless noted
Compounds without any hit were thinned out: in the full panel of roughly 83,000, 20% have a hit. Activity calls are given as the source filed them. Rule for the calls: active = growth percent below 10; inactive = the rest.
Entry note: the call must match one of active, inactive

Cc1ccccc1N1C(c2ccccc2)=NNC12C=CC(=O)C=C2Cl (stereo not drawn); inactive
CC1(O)CCC(Nc2cc(-c3ccc(C(F)(F)F)cc3)c(C#N)c3nc4ccccc4n23)CC1 (stereo not drawn); inactive
Cc1cc(C(=O)NOCCO)c(Nc2ccc(I)cc2F)n(C)c1=O; inactive
CCN1CCN(Cc2ccc(NC(=O)Nc3nc(-c4cc(OC)c(OC)c(OC)c4)cs3)cc2C(F)(F)F)CC1; inactive
COc1cc2ncnc(Nc3ccc(O)cc3)c2cc1OC; inactive

Called result for CO[C@H](C(=O)N[C@@H](CCCCNC(=O)OCc1ccccc1)C(=O)OC(C)(C)C)[C@@H]1Cc2cc3cc(OC4CC(OC5CC(O)C(O)C(C)O5)C(O)C(C)O4)c(C)c(O)c3c(O)c2C(=O)[C@H]1OC1CC(OC2CC(OC3CC(C)(O)C(O)C(C)O3)C(O)C(C)O2)C(O)C(C)O1 (stereo partly drawn) active

Which outcome was entered for the compound COc1cc(NC2CCC(=O)N2c2ccc(Cl)cc2Cl)cc(OC)c1OC (stereo not drawn) in this test? inactive

Write down the call the test reported for this compound. Item: CC1(O)CCC2CC3OC3(C)CCC3OC3(C)C(O)CC1C2(C)C (stereo not drawn) inactive

====

Readings of growth for the listed compounds
System: RPMI-8226 leukemia
Experiment: NCI-60 one-dose screen, 48 h (100 = growth as untreated, 0 = no growth, -100 = all killed)
Details: 10 µM unless noted
This is part of a sample that, as a whole, favours compounds with a hit. Of some 83,000 tested, about 20% had one in any assay. Calls of active or inactive are those of the source. The calls were made as follows: active = growth percent below 10; inactive = the rest.

CO[C@H]1C[C@@H]2CC[C@@H](C)[C@@](O)(O2)C(=O)C(=O)N2CCCC[C@H]2C(=O)O[C@H]([C@H](C)C[C@@H]2CC[C@@H](OP(C)(C)=O)[C@H](OC)C2)CC(=O)[C@H](C)/C=C(\C)[C@@H](O)[C@@H](OC)C(=O)[C@H](C)C[C@H](C)\C=C/C=C/C=C/1C; 34.8% (inactive)
COc1ccc(C(=O)N2c3ccccc3Sc3ccccc32)c(F)c1; 18.6% (inactive)
Cc1ccc2oc(=O)cc(-c3cc(-c4cc5ccccc5oc4=O)nc(N)c3C#N)c2c1; 72.9% (inactive)
CCN(CCN(C)C)C(=O)CNCc1cc(C(N)=O)ccn1; 96.1% (inactive)

Read the entry `O=C1NC(=O)C(c2cnc3ccccn23)=C1c1cn2c3c(cc(F)cc13)CN(C(=O)N1CCCCC1)CC2` and write its reported growth. 60.8% (inactive)

Annotate the compound `C[N+](C)(CCOC(c1ccccc1)c1ccccc1)CC(=O)OCc1ccccc1` with its measured growth. 111% (inactive)

Name the recorded growth of the item `CCOc1cc2ncc(C#N)c(Nc3ccc(OCc4ccccn4)c(Cl)c3)c2cc1NC(=O)/C=C/CN(C)C` in your answer. -7.58% (active)

====

Item-by-item account of growth
System: SK-MEL-28 melanoma
Test: NCI-60 one-dose screen, 48 h (100 = growth as untreated, 0 = no growth, -100 = all killed)
Settings: 10 µM unless noted
This is part of a sample that, as a whole, favours compounds with a hit. Of some 83,000 tested, about 20% had one in any assay.
Numeric answer only, unit % assumed.

In the examples that follow, each entry is paired with its recorded growth.
CC(C)(C)c1ccc(Cn2cc(CSc3nc4ccccc4s3)nn2)cc1; 96.4
COc1ccc(OC)c(NC2=C(SCCc3ccccc3)C(=O)c3ccccc3C2=O)c1; 108
CC[C@@H]1C(=O)N(C)c2cnc(Nc3ccc(C(=O)NC4CCN(C)CC4)cc3OC)nc2N1C1CCCC1; 34.4
CC/C=C\C[C@H]1C/C=C2/C(=O)C=C[C@@H]2C/C=C\CCCC(=O)O1; -28.6
Nc1c2c(c(O)c3c1=C(CO)C=N3)=NCCS2; -79
FC(F)(F)c1ccc(CNc2ccc(Cc3c[nH]c4ncc(Cl)cc34)cn2)cn1; 17.8
Cc1cc(NCC(=O)Nc2ccc(-c3nc4ccccc4s3)cc2)no1; 110
C=C1CC[C@@H]2[C@](C)(COC(C)=O)[C@H](OC(C)=O)CC[C@@]2(C)[C@@H]1C/C=C1/C(=O)OC[C@H]1OC(C)=O; 37.8

We now examine a further molecule.
Supply growth value. Item: `C=C1C(=O)O[C@H]2[C@H]1CC/C(C=Nc1c(N)cc(C(F)(F)F)cc1C(F)(F)F)=C\CC[C@@]1(C)O[C@@H]21` -17.2

====

Test system: SN12C renal
Experiment: NCI-60 one-dose screen, 48 h (100 = growth as untreated, 0 = no growth, -100 = all killed)
Conditions: 10 µM unless noted
About 83,000 compounds went through this panel and 20% of them were active in at least one assay; those are over-represented in the sample as a whole.
Readings of growth for the listed molecules
Give the value in % but do not write % after it.

Examples from the recorded data:
COc1cc(-c2nc(C(=O)NCC(=O)O)nn2-c2ccc(Cl)cc2)cc(OC)c1OC; 101
CCc1cnn2c(NCc3ccc[n+]([O-])c3)cc(N3CCCC[C@H]3CCO)nc12; 4.31
CC[C@H](CO)Nc1nc(NCc2ccccc2)c2ncn(C(C)C)c2n1; 73.4
COc1cc2c(cc1OCCCCN1CCN(CC(=O)Nc3ccc(Cl)cc3C(=O)c3ccccc3Cl)CC1)N=CC1CCCN1C2=O (stereo not drawn); -81.1
O=C(c1c(F)ccc(NS(=O)(=O)N2CC[C@@H](F)C2)c1F)c1c[nH]c2ncc(-c3cnc(C4CC4)nc3)cc12; 48
Cc1[nH]c(/C=C2\C(=O)Nc3ccc(F)cc32)c(C)c1C(=O)NC[C@H](O)CN1CCOCC1; 27.6
Ic1ccccc1-c1ccccc1; 101
CCCCCCCC12Cc3ccccc3C1=Nc1c(c3ccccc3n1C)C2=O (stereo not drawn); 92.1
Cc1cc2c3c(cccc3c1)C(=O)c1ccccc1-2; 97
NC(=O)Nc1cc(-c2cccc(F)c2)sc1C(=O)N[C@H]1CCCNC1; -5.05

Determine from records and report growth for `C=CCC(=O)N[C@H](/C=C/C(=O)O)Cc1ccc(-c2cc(Cl)cc(Cl)c2)cc1` 100

Input `CO[C@H]1C[C@@H]2CC[C@@H](C)[C@@](O)(O2)C(=O)C(=O)N2CCCC[C@H]2C(=O)O[C@H]([C@H](C)C[C@@H]2CC[C@@H](O)[C@H](OC)C2)CC(=O)[C@H](C)/C=C(\C)[C@@H](O)[C@@H](OC)C(=O)[C@H](C)C[C@H](C)\C=C/C=C/C=C/1C` , output reported growth. 44.3

Return reported growth. Input molecule: `NS(=O)(=O)c1ccc(CCN2C(=O)/C(=C\c3ccc(Cl)cc3)C=C2c2ccc3ccccc3c2)cc1` 94

Indicate its recorded growth; the molecule in question is `CC(C)(C)c1ccc(Cn2cc(CSc3nc4ccccc4s3)nn2)cc1` 90.8

Consider the molecule COc1cc2c(cc1OCCCCCCN1CCN(c3ncnc4ccccc34)CC1)N=CC1CCCN1C2=O (stereo not drawn) and give its recorded growth. -10.4

Tell me measured growth for `O=C(CNc1nc(-c2ccc(Cl)cc2)cs1)Nc1ccc(-c2nc3ccccc3s2)cc1` please. 101

// fetch growth given entry `Nc1cc(C(F)(F)F)c(-c2cc(N3CCOCC3)nc(N3CCOCC3)n2)cn1` -3.99

Look up and report measured growth for this entry: `O=C(COc1ccc(/C=C2\Cc3ccc(Cl)cc3C2=O)cc1)Nc1nccs1` 95.7
